- testName: Growth inhibition of human HBC5 cells
- Format: functional, cell-based
measuredMetric: pIC50
The meaning of pIC50 here: minus log10 of the concentration in molar units.

For Cn1cc(NC(=O)CC[S+](C)C)cc1-c1nc2cc(C(=O)Nc3ccc(N(CCCl)CCCl)cc3)ccc2[nH]1 , what is its reported pIC50? 6.15

---

Let's go through some IC50 measurements on Telomerase reverse transcriptase (Homo sapiens, UniProt O14746) together.
Sequence (O14746 whole entry): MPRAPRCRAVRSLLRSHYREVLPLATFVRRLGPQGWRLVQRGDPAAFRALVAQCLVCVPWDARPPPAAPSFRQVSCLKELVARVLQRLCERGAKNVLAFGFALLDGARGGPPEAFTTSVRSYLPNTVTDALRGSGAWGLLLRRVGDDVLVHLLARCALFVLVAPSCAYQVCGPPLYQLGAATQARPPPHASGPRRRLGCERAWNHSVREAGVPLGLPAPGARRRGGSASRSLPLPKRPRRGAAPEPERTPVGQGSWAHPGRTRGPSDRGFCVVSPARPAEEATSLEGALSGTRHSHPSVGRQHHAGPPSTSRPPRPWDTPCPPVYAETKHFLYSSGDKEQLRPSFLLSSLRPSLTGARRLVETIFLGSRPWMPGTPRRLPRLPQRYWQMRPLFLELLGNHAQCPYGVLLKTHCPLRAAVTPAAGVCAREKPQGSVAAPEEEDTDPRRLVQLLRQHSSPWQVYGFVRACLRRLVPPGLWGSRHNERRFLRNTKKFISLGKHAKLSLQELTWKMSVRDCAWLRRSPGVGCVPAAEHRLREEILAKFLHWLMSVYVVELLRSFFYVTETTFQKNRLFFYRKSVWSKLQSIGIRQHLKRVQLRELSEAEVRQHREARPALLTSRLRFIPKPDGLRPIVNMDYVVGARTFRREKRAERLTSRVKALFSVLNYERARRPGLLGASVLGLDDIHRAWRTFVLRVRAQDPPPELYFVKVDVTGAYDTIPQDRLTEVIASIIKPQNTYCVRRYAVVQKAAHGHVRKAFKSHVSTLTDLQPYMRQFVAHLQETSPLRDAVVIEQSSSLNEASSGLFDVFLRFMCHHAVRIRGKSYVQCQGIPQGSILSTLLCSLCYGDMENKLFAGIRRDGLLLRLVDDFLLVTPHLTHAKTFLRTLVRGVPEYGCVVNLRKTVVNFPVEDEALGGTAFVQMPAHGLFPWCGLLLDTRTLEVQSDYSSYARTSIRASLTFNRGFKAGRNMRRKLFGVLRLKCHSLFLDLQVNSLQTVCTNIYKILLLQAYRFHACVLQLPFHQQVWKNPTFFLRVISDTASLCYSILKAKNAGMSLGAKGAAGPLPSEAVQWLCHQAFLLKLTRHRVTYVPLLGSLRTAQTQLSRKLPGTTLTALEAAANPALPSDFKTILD
Numeric only. Scale: µM

CCn1c(=O)/c(=C2\Sc3ccccc3N2C)s/c1=C\c1scc(C)[n+]1CC 2
CCn1c(=O)/c(=C2\Sc3ccccc3N2C)s/c1=C\c1cccc[n+]1CC 5

Lab note: next molecule to report on.
Item: COc1ccc2cc3[n+](cc2c1OC)CCc1cc2c(cc1-3)OCO2 Test system: Telomerase reverse transcriptase (Homo sapiens, UniProt O14746) Read-out: IC50 Value: ? 37

---

- System: HCT-15
- testName: Growth inhibition of human HCT15 cells
- Assay type: functional, cell-based
measuredMetric: IC50 (nM)
Numeric only. Scale: nM

For Cn1cc(NC(=O)CC[S+](C)C)cc1-c1nc2cc(C(=O)Nc3ccc(N(CCCl)CCCl)cc3)ccc2[nH]1 , what is its reported IC50? 710

---

- Test system: MKN-45
- testName: Growth inhibition of human MKN45 cells
- Format: functional, cell-based
measuredMetric: pIC50
The meaning of pIC50 here: minus log10 of the concentration in molar units.

For Cn1cc(NC(=O)CC[S+](C)C)cc1-c1nc2cc(C(=O)Nc3ccc(N(CCCl)CCCl)cc3)ccc2[nH]1 , what is its reported pIC50? 6.15

---

- Test system: SK-OV-3
- testName: Growth inhibition of human SKOV3 cells
- Type: functional, cell-based
measuredMetric: IC50 (µM)
Numeric only. Scale: µM

For Cn1cc(NC(=O)CC[S+](C)C)cc1-c1nc2cc(C(=O)Nc3ccc(N(CCCl)CCCl)cc3)ccc2[nH]1 , what is its reported IC50? 0.71

---

- Test system: HT-29
- testName: Growth inhibition of human HT-29 cells
- Type: functional, cell-based
measuredMetric: pIC50
The meaning of pIC50 here: minus log10 of the concentration in molar units.

Item: Cn1cc(NC(=O)CC[S+](C)C)cc1-c1nc2cc(C(=O)Nc3ccc(N(CCCl)CCCl)cc3)ccc2[nH]1 Test system: HT-29 Read-out: pIC50 Value: ? 6.15

---

- System: KM12
- testName: Growth inhibition of human KM12 cells
- Type: functional, cell-based
measuredMetric: IC50 (nM)
Numeric only. Scale: nM

For Cn1cc(NC(=O)CC[S+](C)C)cc1-c1nc2cc(C(=O)Nc3ccc(N(CCCl)CCCl)cc3)ccc2[nH]1 , what is its reported IC50? 710

---

- testName: Growth inhibition of human RXF631L cells
- Format: functional
- experimentalConditions: RXF 631
measuredMetric: IC50 (nM)
Numeric only. Scale: nM

For Cn1cc(NC(=O)CC[S+](C)C)cc1-c1nc2cc(C(=O)Nc3ccc(N(CCCl)CCCl)cc3)ccc2[nH]1 , what is its reported IC50? 710

Every entry's value here was drawn from ChEMBL document CHEMBL1955734.
